Data origin: ChEMBL document CHEMBL1914282

TARGET OR SYSTEM: G-protein coupled receptor 35 (Homo sapiens)
Sequence (Q9HC97 whole entry): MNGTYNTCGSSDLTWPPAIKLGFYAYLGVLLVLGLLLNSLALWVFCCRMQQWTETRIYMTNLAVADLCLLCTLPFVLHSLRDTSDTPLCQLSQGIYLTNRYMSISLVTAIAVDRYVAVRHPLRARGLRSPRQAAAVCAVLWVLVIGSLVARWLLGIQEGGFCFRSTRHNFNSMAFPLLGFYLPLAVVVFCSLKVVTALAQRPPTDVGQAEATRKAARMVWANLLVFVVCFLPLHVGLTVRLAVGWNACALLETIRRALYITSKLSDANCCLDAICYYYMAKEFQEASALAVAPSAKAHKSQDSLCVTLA
METHOD NOTES: Agonist activity at GPR35 in human HT-29 cells assessed as desensitization of 1 uM zaprinast-induced DMR after 1 hr by dynamic mass redistribution assay
Rule: IC50 below 5 µM gives Met, anything at or above gives Not met.

COMPOUND	CAT
Cc1c(C(=O)O)sc2c(Br)csc12	Met
CC1=C(C#N)C(=C(C#N)C#N)OC1(C)c1c(F)c(F)c(F)c(F)c1F (stereo unspecified)	Met
CC1=C(C#N)C(=C(C#N)C#N)OC1(C)c1ccc(F)cc1F (stereo unspecified)	Not met
CCCCCCc1csc2cc(C(=O)O)sc12	Met
CC1=C(C#N)C(=C(C#N)C#N)OC1(c1ccccc1)C(F)(F)F (stereo unspecified)	Met
CC1=C(C#N)C(=C(C#N)C#N)OC1(C)C	Not met
